This collection of values is drawn from patent US20220056104A1.

Let's look at some binders and their measured Rel EC50.
Molecular target: T1, Recombinant DR3-Fc (R&D Systems, cat. #943-D3) (UniProt Q93038 25-199, limits assumed)
T1 construct: dimeric MW~92 kDa; also called DR3 receptor; Fc-DR3; not shown: Fc part of the bought fusion
T1 sequence (looked up): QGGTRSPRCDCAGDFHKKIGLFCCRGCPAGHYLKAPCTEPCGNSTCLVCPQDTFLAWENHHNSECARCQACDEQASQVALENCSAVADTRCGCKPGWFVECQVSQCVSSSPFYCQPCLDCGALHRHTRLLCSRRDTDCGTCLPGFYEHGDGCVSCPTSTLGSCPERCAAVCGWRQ
Assay: ELISA, DR3-Fc immobilized
Procedure: All ELISA-based measurements were collected in triplicate, and error values report the standard error between measurements. […] Plates were washed three times with TBST. […] 100 μl/well POD Chemiluminescence substrate (Roche, cat #: 11582950001) was added immediately prior to reading plate luminescence using a Molecular Devices M5 plate reader with a delay setting of 100 ms. […]

{"columns": ["binder", "Rel EC50"],
 "data": [
  ["TL1W46 (His-TEV-TL1A T239W) (ligand, also called TL1W46 (T239W)) HHHHHHENLYFQGLKGQEFAPSHQQVYAPLRADGDKPRAHLTVVRQTPTQHFKNQFPALHWEHELGLAFTKNRMNYTNKFLLIPESGDYFIYSQVTFRGMTSECSEIRQAGRPNKPDSITVVITKVTDSYPEPTQLLMGTKSVCEVGSNWFQPIYLGAMFSLQEGDKLMVNVSDISLVDYWKEDKTFFGAFLL", "10.8 ratio (head: nM)"]
]}

Okay, next one:
Rel EC50 for TL1W31 (GD: Single chain MMB in CBIS; His-TEV-hTL1A 72-251 R103Q) (ligand, also called TL1W31 (R103Q)) HHHHHHENLYFQGLKGQEFAPSHQQVYAPLRADGDKPRAHLTVVQQTPTQHFKNQFPALHWEHELGLAFTKNRMNYTNKFLLIPESGDYFIYSQVTFRGMTSECSEIRQAGRPNKPDSITVVITKVTDSYPEPTQLLMGTKSVCEVGSNWFQPIYLGAMFSLQEGDKLMVNVSDISLVDYTKEDKTFFGAFLL is 0.4 ratio (head: nM)
